Each item that follows carries a reported pIC50.
test: Binding affinity to human FR-alpha receptor expressed in Chinese hamster RT16 cells assessed as antiproliferative activity measured as reduction in cell viability after 96 hrs in presence of folic acid by Cell-Titer Blue assay
pIC50: −log10 of the molar value.
assay.metric: pIC50

INSERT INTO measurements (molecule, result) VALUES
  ('Nc1nc2[nH]c(CCC#Cc3cccc(C(=O)N[C@@H](CCC(=O)O)C(=O)O)n3)cc2c(=O)[nH]1', '< 6.00'),
  ('Nc1nc2[nH]c(CCCCc3ccc(C(=O)N[C@@H](CCC(=O)O)C(=O)O)cn3)cc2c(=O)[nH]1', '< 6.00'),
  ('Nc1nc2[nH]c(CCC#Cc3ccc(C(=O)N[C@@H](CCC(=O)O)C(=O)O)nc3)cc2c(=O)[nH]1', '< 6.00'),
  ('Nc1nc2[nH]c(CCCCc3cccc(C(=O)N[C@@H](CCC(=O)O)C(=O)O)n3)cc2c(=O)[nH]1', '< 6.00'),
  ('C#CCC(Cc1cnc2nc(N)nc(N)c2n1)c1ccc(C(=O)N[C@@H](CCC(=O)O)C(=O)O)cc1 (stereo partly specified) [CHEBI:71223]', '< 6.00'),
  ('Nc1nc2[nH]c(CCC#Cc3ccc(C(=O)N[C@@H](CCC(=O)O)C(=O)O)cn3)cc2c(=O)[nH]1', '< 6.00');

====

test: Binding affinity to human PCFT expressed in Chinese hamster R2/PCFT4 cells assessed as antiproliferative activity measured as reduction in cell viability after 96 hrs by Cell-Titer Blue assay
pIC50: −log10 of the molar value.
assay.metric: pIC50

INSERT INTO assay_data (compound, assay_metric, result) VALUES
  ('C#CCC(Cc1cnc2nc(N)nc(N)c2n1)c1ccc(C(=O)N[C@@H](CCC(=O)O)C(=O)O)cc1 (stereo partly specified)', 'pIC50', 7.24),
  ('Nc1nc2[nH]c(CCCCc3ccc(C(=O)N[C@@H](CCC(=O)O)C(=O)O)cn3)cc2c(=O)[nH]1', 'pIC50', '< 6.00'),
  ('Nc1nc2[nH]c(CCCCc3ccc(C(=O)N[C@@H](CCC(=O)O)C(=O)O)nc3)cc2c(=O)[nH]1', 'pIC50', 7.24),
  ('Nc1nc2[nH]c(CCC#Cc3ccc(C(=O)N[C@@H](CCC(=O)O)C(=O)O)nc3)cc2c(=O)[nH]1', 'pIC50', '< 6.00'),
  ('Nc1nc2[nH]c(CCC#Cc3cccc(C(=O)N[C@@H](CCC(=O)O)C(=O)O)n3)cc2c(=O)[nH]1', 'pIC50', '< 6.00'),
  ('Nc1nc2[nH]c(CCC#Cc3ccc(C(=O)N[C@@H](CCC(=O)O)C(=O)O)cn3)cc2c(=O)[nH]1', 'pIC50', '< 6.00');

====

test: Binding affinity to human FR-beta receptor expressed in Chinese hamster D4 cells assessed as antiproliferative activity measured as reduction in cell viability after 96 hrs by Cell-Titer Blue assay
pIC50: −log10 of the molar value.
// reported pIC50 for each item listed
assay.metric: pIC50

INSERT INTO assay_data (chemical_string, assay_metric, sign_qualifier, number) VALUES
  ('Nc1nc2[nH]c(CCC#Cc3cccc(C(=O)N[C@@H](CCC(=O)O)C(=O)O)n3)cc2c(=O)[nH]1', 'pIC50', '<', 6.00),
  ('Nc1nc2[nH]c(CCCCc3cccc(C(=O)N[C@@H](CCC(=O)O)C(=O)O)n3)cc2c(=O)[nH]1', 'pIC50', '<', 6.00),
  ('Nc1nc2[nH]c(CCC#Cc3ccc(C(=O)N[C@@H](CCC(=O)O)C(=O)O)cn3)cc2c(=O)[nH]1', 'pIC50', '=', 6.08),
  ('Nc1nc2[nH]c(CCCCc3ccc(C(=O)N[C@@H](CCC(=O)O)C(=O)O)cn3)cc2c(=O)[nH]1', 'pIC50', '=', 7.43),
  ('Nc1nc2[nH]c(CCC#Cc3ccc(C(=O)N[C@@H](CCC(=O)O)C(=O)O)nc3)cc2c(=O)[nH]1', 'pIC50', '=', 7.72);
